- target.desc: MAO–B (Rattus norvegicus, UniProt P19643)
- Construct: the obtained SD rat liver mitochondrial concentrate was the experimental monoamine oxidase stock solution; from tissue; host or cells: male SD rat liver mitochondria
- Sequence (P19643 whole entry): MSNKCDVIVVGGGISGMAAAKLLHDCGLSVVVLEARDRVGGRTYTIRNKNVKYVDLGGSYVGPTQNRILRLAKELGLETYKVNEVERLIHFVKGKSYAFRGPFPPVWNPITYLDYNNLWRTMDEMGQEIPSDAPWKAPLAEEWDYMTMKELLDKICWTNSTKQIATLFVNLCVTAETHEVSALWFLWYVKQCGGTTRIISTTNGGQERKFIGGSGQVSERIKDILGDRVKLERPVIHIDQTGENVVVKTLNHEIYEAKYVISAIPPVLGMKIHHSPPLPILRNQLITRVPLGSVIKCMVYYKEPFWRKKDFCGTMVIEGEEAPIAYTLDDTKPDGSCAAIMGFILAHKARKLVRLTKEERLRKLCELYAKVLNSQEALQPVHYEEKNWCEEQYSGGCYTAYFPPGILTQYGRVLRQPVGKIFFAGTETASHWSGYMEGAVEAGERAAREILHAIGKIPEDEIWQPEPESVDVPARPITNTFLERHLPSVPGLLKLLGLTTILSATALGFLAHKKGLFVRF
- method: MAO–B inhibitory activity (enzyme pre-incubated with chlorgiline); further: test concentration or dose not given here
- Assay type: biochemical
attribute.measured: Inhibition Rate (%) MAO–B

# molecule, attribute.measured, experimental.value
measured = [
    ("Cc1ccc2nc(NC(=O)CN3CCc4ccccc4[C@H]3c3ccccc3)sc2c1 [Compound 4i]", "Inhibition Rate (%) MAO–B", 61.17),
    ("Cc1cccc2sc(NC(=O)CN3CCc4ccccc4[C@H]3c3ccccc3)nc12 [Compound 4g]", "Inhibition Rate (%) MAO–B", 51.39),
    ("O=C(CN1CCc2ccccc2[C@H]1c1ccccc1)Nc1nc2ccc(Cl)cc2s1 [Compound 4c]", "Inhibition Rate (%) MAO–B", 48.45),
    ("O=C(CN1CCc2ccccc2[C@H]1c1ccccc1)Nc1nc2ccc(Br)cc2s1 [Compound 4f]", "Inhibition Rate (%) MAO–B", 46.49),
]

###

- target.desc: MAO
- method: MAO inhibitory activity (Holts method, rat liver mitochondrial enzyme)
Recorded IC50, one value per entry.

# smiles.str, IC50
measured = [
    ("O=C(CN1CCc2ccccc2[C@H]1c1ccccc1)Nc1nc2c(Cl)cccc2s1", "> 150 µM"),
    ("O=C(CN1CCc2ccccc2[C@H]1c1ccccc1)Nc1nc2ccc(F)cc2s1", "> 150 µM"),
    ("COc1cccc2sc(NC(=O)CN3CCc4ccccc4[C@H]3c3ccccc3)nc12", "> 150 µM"),
    ("O=C(CN1CCc2ccccc2[C@H]1c1ccccc1)Nc1nc2ccc([N+](=O)[O-])cc2s1", "> 150 µM"),
]

Hello, the source for this data is paper PMC9782539, in case you need it.
